target: UniProt:P21397; assay: Monoamine oxidase A inhibition (p-tyramine substrate, H2O2/vanillic acid/HRP readout); format: biochemical; conditions: p-tyramine 0.5 mM; mean ± s.e.m.; read-out: IC50 [μM] for Inhibition of MAO-A
Sequence (P21397 whole entry, species assumed): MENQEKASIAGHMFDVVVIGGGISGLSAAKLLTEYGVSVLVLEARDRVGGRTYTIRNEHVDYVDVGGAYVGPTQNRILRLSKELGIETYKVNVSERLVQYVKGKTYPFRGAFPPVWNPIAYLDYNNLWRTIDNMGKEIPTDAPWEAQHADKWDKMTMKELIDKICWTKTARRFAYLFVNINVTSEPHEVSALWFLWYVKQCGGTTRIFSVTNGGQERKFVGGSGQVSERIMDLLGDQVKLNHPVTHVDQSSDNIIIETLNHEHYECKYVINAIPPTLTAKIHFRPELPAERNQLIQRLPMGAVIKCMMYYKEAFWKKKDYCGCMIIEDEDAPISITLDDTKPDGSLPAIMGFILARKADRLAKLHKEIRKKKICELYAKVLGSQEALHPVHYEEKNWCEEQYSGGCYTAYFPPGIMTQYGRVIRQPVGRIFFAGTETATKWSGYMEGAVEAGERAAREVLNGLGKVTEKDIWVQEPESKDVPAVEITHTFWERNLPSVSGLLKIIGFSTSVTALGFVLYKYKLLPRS
Form field: IC50 (one value per entry).
Write the answer as a number in µM, unit excluded.

{"Molecule": "COc1c(C(C)C)cc2c(c1O)C1(C(=O)O)CCCC(C)(C)C1CC2 (centres unmarked) [Carnosic acid-12-methylether, carnosic acid 12-methyl ether]", "Experimental Target": "UniProt:P21397", "Units": "µM", "Readout Number": 40.6}

// switching to the query molecule
Qu. Would you kindly share the measured IC50 for CC(C)c1cc2c(c(O)c1O)[C@@]13CCCC(C)(C)[C@@H]1C[C@@H]2OC3 [20-Deoxo-carnosol, 20-deoxo-carnosol] ?
Ans. 4.3
